Tested on: cell-surface Mac-1 adhesion to immobilized fibrinogen (HL-60 cells)
measurement.protocol: Mac-1/Fibrinogen cell-based screening assay
Parameters: species or system human
study.conditions: Homo sapiens, HL-60, HL-60 cells; read-out: Mac-1/Fgn Cell based Assay IC50
Please use the following IC50 ranges when assigning a class: bottom range = under 20 nM, center range = from 20 nM up to 70 nM, top range = 70 nM and over

compound="Cc1ccc(C(=O)NC[C@H](NC(=O)c2ccc(C(=O)NCc3cccc(O)c3)cc2Cl)C(=O)O)s1 [Example 160]" label="bottom range"
compound="O=C(NCc1cccc(O)c1)c1ccc(C(=O)N[C@@H](CNC(=O)c2cc(Br)cc(Br)c2)C(=O)O)c(Cl)c1 [Example 228]" label="top range"
compound="O=C(NCc1cccc(O)c1)c1ccc(C(=O)N[C@@H](CNC(=O)c2cc3ccccc3s2)C(=O)O)c(Cl)c1 [Example 175]" label="top range"
compound="N[C@@H](Cc1ccc([N+](=O)[O-])cc1)C(=O)NC[C@H](NC(=O)c1ccc(C(=O)NCc2cccc(O)c2)cc1Cl)C(=O)O [Example 271]" label="top range"

Problem: Any idea which band Cc1cc(C(=O)NCc2cccc(O)c2)ccc1C(=O)N[C@@H](CNC(=O)c1cccs1)C(=O)O [Example 323] is in?
Result: center range

Problem: Band assignment needed for O=C(NCc1cccc(O)c1)c1ccc(C(=O)N[C@@H](CNC(=O)c2ccc(Br)o2)C(=O)O)c(Cl)c1 [Example 150] please.
Result: center range

Problem: # classify by IC50 band: O=C(NCc1cccc(O)c1)c1cc(Cl)c(C(=O)N[C@@H](CNC(=O)c2cccc(O)c2)C(=O)O)c(Cl)c1 [Example 350]
Result: bottom range

Problem: Given O=C(NCc1cccc(O)c1)c1cc(Cl)c(C(=O)N[C@@H](CNC(=O)c2sccc2Br)C(=O)O)c(Cl)c1 [Example 353] , name the class its IC50 places it in.
Result: bottom range

Problem: Category of O=C(NCc1cccc(O)c1)c1cc(Cl)c(C(=O)N[C@@H](CNC(=O)c2sccc2Cl)C(=O)O)c(Cl)c1 [Example 355] :
Result: bottom range

Problem: Which IC50 category applies to O=C(NCc1cccc(O)c1)c1ccc(C(=O)N[C@@H](CNC(=O)c2cc(F)cc(F)c2)C(=O)O)c(Cl)c1 [Example 252] here?
Result: bottom range

Problem: Would you mind sorting N#Cc1cccc(C(=O)NC[C@H](NC(=O)c2ccc(C(=O)NCc3cccc(O)c3)cc2Cl)C(=O)O)c1 [Example 126] into the appropriate category?
Result: center range

Problem: // bin(item) where item = Cc1cc(C(=O)NCc2cccc(O)c2)cc(Cl)c1C(=O)N[C@@H](CNC(=O)c1cccs1)C(=O)O [Example 338]
Result: bottom range

* * *

log10 of IC50 values for the compounds below.
tested.target: LFA-1 binding to immobilized ICAM-1 (Homo sapiens, UniProt P05107+P20701)
Construct: made in house; host or cells: transfected 293 cells (LFA-1)
Sequence (P20701 26-1170): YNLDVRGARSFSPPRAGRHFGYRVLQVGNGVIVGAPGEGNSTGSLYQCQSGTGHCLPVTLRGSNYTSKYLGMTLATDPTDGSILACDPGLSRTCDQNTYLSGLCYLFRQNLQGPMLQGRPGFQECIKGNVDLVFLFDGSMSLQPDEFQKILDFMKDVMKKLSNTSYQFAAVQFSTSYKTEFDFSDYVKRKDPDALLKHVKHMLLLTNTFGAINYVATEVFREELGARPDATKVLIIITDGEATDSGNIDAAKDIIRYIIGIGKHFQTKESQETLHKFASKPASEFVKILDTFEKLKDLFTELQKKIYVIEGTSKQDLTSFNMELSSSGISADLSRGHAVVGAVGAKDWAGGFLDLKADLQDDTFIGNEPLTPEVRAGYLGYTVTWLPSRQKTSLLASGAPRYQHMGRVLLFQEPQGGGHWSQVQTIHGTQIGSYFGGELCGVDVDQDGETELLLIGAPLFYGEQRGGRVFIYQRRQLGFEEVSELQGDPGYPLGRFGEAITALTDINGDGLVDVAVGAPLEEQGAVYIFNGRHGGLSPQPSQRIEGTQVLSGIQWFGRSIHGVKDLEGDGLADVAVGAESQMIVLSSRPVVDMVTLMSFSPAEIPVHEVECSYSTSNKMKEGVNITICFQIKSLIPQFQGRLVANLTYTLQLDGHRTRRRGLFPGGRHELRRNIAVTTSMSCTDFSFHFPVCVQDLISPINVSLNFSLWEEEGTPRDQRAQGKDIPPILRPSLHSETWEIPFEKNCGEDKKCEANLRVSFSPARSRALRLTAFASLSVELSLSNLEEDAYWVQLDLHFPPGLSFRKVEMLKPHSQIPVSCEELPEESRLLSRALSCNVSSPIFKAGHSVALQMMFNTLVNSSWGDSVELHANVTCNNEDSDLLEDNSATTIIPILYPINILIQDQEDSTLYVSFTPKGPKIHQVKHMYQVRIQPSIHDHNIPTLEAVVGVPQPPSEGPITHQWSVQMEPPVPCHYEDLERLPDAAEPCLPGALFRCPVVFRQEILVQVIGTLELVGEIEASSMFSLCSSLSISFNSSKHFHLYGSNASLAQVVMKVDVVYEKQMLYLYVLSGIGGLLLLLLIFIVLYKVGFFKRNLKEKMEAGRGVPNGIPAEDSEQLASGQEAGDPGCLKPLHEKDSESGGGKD
Sequence (P05107 23-769): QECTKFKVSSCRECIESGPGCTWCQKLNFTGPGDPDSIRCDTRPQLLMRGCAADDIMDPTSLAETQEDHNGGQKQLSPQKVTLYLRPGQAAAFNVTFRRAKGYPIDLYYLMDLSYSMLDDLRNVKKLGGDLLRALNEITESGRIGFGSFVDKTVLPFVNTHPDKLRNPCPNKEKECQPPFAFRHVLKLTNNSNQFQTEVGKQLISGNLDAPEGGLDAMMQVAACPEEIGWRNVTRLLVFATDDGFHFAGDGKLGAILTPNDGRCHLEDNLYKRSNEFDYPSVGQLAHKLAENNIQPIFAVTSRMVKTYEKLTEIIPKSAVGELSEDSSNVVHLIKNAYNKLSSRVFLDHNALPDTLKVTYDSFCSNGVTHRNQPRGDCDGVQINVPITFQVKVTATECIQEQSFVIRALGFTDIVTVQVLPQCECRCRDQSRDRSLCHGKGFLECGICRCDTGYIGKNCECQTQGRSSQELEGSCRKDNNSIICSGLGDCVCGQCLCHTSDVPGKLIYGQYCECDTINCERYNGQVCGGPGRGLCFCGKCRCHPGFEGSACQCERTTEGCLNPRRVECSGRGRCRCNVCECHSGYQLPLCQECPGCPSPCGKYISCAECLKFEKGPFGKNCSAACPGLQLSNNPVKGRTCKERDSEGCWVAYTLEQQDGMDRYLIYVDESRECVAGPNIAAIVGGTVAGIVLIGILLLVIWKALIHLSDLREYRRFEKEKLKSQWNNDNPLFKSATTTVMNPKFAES
measurement.protocol: LFA-1/ICAM-1 protein-protein assay (solid-phase ELISA)
study.conditions: read-out: LFA-1/ICAM-1 Protein-Protein Assay IC50
Method: (a) LFA-1/ICAM-1 screening test: LFA-1/ICAM-1 antagonist activity, defined as the ability of compounds of the invention to block LFA-1 binding to immobilized ICAM-1, was quantitated using a solid-phase ELISA. Typically, fusion protein consisting of the entire extracellular domain of human ICAM-1 and the Fc domain of human IgG (5dICAM-Ig) was coated onto 96-well microtiter plates (0.15 μg in 100 μL PBS) overnight at 4° C. […] The plates were then read at 450 nm. […]
# values: log10(IC50), units nM

compound="NCCCC[C@H](N)C(=O)NC[C@H](NC(=O)c1ccc(C(=O)NCc2cccc(O)c2)cc1Cl)C(=O)O [Example 198]" tested_target="LFA-1 binding to immobilized ICAM-1 (Homo sapiens, UniProt P05107+P20701)" experimental_result=1.08
compound="O=C(CC1c2ccccc2-c2ccccc21)NC[C@H](NC(=O)c1ccc(C(=O)NCc2cccc(O)c2)cc1Cl)C(=O)O [Example 88]" tested_target="LFA-1 binding to immobilized ICAM-1 (Homo sapiens, UniProt P05107+P20701)" experimental_result=0.26
compound="N[C@@H](CCC(=O)NC[C@H](NC(=O)c1ccc(C(=O)NCc2cccc(O)c2)cc1Cl)C(=O)O)C(=O)O [Example 202]" tested_target="LFA-1 binding to immobilized ICAM-1 (Homo sapiens, UniProt P05107+P20701)" experimental_result=0.26
compound="Cc1cc(C(=O)NCc2cccc(O)c2)cc(C)c1C(=O)N[C@@H](CNC(=O)c1ccsc1)C(=O)O [Example 336]" tested_target="LFA-1 binding to immobilized ICAM-1 (Homo sapiens, UniProt P05107+P20701)" experimental_result=0.32
compound="N[C@H](C(=O)NC[C@H](NC(=O)c1ccc(C(=O)NCc2cccc(O)c2)cc1Cl)C(=O)O)c1ccccc1 [Example 285]" tested_target="LFA-1 binding to immobilized ICAM-1 (Homo sapiens, UniProt P05107+P20701)" experimental_result=0.49

Problem: Report log10 of IC50 for O=C(N[C@@H](CNC(=O)C1CCCC1)C(=O)O)c1c(Cl)cccc1Cl [Example 213] please.
Result: 1.49

Problem: May I ask what log10 of IC50 has been recorded for N[C@@H](Cc1ccc([N+](=O)[O-])cc1)C(=O)NC[C@H](NC(=O)c1ccc(C(=O)NCc2cccc(O)c2)cc1Cl)C(=O)O [Example 271] ?
Result: 0.58
